experiment: Cell survival (MTT) assay, MEFs (TDP1+/+ and TDP1-/-); format: cell-based, mouse; conditions: mouse, mouse embryonic fibroblasts (MEFs); MEFs, noncancerous; read-out: IC50 cytotoxicity
READOUT_TYPE: IC50

What value of IC50 has been reported for the following compound? CN(C)c1ccc(-c2c3nc(c(-c4ccc(N(C)C)cc4)c4ccc([nH]4)c(-c4ccc(C(=O)O)cc4)c4nc(c(-c5ccc(C(=O)O)cc5)c5ccc2[nH]5)C=C4)C=C3)cc1 [Compound 8]
> 10 µM

---

test: Cell survival (MTT) assay, MEFs (TDP1+/+ and TDP1-/-); format: cell-based, mouse; conditions: mouse, TDP1+/+ primary mouse embryonic fibroblasts (MEFs); TDP1+/+ MEFs; read-out: IC50 cytotoxicity
READOUT_TYPE: IC50

Please look up its IC50: CN(C)c1ccc(-c2c3nc(c(-c4ccc(N(C)C)cc4)c4ccc([nH]4)c(-c4ccc(C(=O)O)cc4)c4nc(c(-c5ccc(C(=O)O)cc5)c5ccc2[nH]5)C=C4)C=C3)cc1
> 10 µM

---

experiment: Cell survival (MTT) assay, HEK293; assay type: cell-based; details: human, HEK293 cells (noncancerous embryonic kidney), read-out: IC50 cytotoxicity
pIC50: −log10 of the molar value.
READOUT_TYPE: pIC50

# get_value(readout='pIC50', item= CN(C)c1ccc(-c2c3nc(c(-c4ccc(N(C)C)cc4)c4ccc([nH]4)c(-c4ccc(C(=O)O)cc4)c4nc(c(-c5ccc(C(=O)O)cc5)c5ccc2[nH]5)C=C4)C=C3)cc1 )
< 5.00

src = paper PMC5808360
